Molecular target: GPR139 (Homo sapiens, UniProt Q6DWJ6)
Sequence (Q6DWJ6 whole entry): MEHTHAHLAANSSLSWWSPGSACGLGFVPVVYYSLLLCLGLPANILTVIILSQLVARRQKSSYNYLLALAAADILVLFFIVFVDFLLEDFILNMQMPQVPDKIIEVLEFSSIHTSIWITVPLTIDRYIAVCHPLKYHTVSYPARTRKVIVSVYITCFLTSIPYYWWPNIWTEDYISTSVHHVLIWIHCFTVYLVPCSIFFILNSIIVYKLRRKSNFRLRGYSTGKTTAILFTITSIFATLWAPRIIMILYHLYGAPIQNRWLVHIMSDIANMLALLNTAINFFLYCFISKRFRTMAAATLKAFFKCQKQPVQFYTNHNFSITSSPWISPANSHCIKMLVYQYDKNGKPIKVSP
Test: GPR139 Agonist titration / agonist counterscreen assay (calcium detection, HEK-GPR139 cells)
Type: cell-based
Set-up: expressed in transfected cells; host or cells: HEK Aequorin cells, Maxcyte transient transfection
Conditions: GPR139 Agonist Activity
Assay Metric: Hill Slope

1: Cc1ccc2c(c1)-c1c(cnn1CC(=O)Nc1ccc(F)cc1)CO2
2: CN(Cc1ccc[nH]1)C(=O)CN1C(=O)NC2(CCc3ccccc3C2)C1=O (centres unmarked)
3: Cc1[nH]c(=O)[nH]c(=O)c1/C=N\NC(=O)CCc1ccc(OC(C)C)cc1
4: CC(C)Cn1c2c(c(=O)[nH]c1=O)C(NC(=O)CCC1CCCCC1)(C(F)(F)F)C(=O)N2 (centres unmarked)
QUERY: Rank the 4 compounds shown above by Hill Slope, smallest number first. State the ranking by listing the labels in the requested order.
RESULT: 1, 2, 4, 3

a: O=C(CCc1ccccc1)Nc1nnc(Cc2cccs2)o1
b: CCN1CCCc2cc(CCNC(=O)Nc3ccccc3)ccc21
QUERY: Compare a and b and name the one whose reported Hill Slope is smaller. Return value: the label identifying the chosen record.
RESULT: b
(b: 0.64, a: 1.17)
